These entries and their values trace back to ChEMBL document CHEMBL4837181.

The following compounds are listed with their measured Activity values.
# Method summary: Change in normalised Cmax in rat at 10 mg/kg, po measured upto 72 hrs by LC-MS/MS analysis
# Format: ADME, organism-based
# Test context: in vivo
Number in %, nothing else.

Reference set (3 entries):
# Compound, Measurement kind, Output unit, Result number
records = [
    ("CCOC(=O)[C@H](N)Cc1cn(C)c2ccccc12.Cl", "Activity", "%", 27),
    ("CCOC(=O)[C@@H](Cc1cn(C)c2ccccc12)NC(=O)[C@@H](N)CC(C)C.Cl", "Activity", "%", 24),
    ("Cl.Cn1cc(C[C@@H](NC(=O)[C@@H](N)Cc2ccccc2)C(=O)O)c2ccccc21", "Activity", "%", -31),
]

Consider the record given below.
Q: Dear colleague, please send me the reported Activity for Cl.Cn1cc(C[C@@H](N)C(=O)OCC(O)CO)c2ccccc21 (stereo not given in full) when you can.
Ans: 92

---

# Method summary: AUC (0 to 24 hrs) in male cynomolgus monkey at 150 mg/kg, po BID measured on day 8
# Type: ADME, organism-based, Macaca fascicularis
# Parameters: time < 24 hr, route oral, dose 150 mg/kg
# Test context: in vivo
The following compounds are listed with their measured AUC at 24 h values.

Reference set (2 entries):
# Structure notation, Result
records = [
    ("CCOC(=O)[C@@H](Cc1cn(C)c2ccccc12)NC(=O)[C@@H](N)CC(C)C.Cl", "0.0806 µM·h"),
    ("CC(C)C[C@H](N)C(=O)N[C@H](Cc1cn(C)c2ccccc12)C(=O)O", "0.0806 µM·h"),
]

Consider the record given below.
Q: Dear colleague, please send me the reported AUC at 24 h for Cn1cc(C[C@@H](N)C(=O)O)c2ccccc21 when you can.
Ans: 509 µM·h

---

# Method summary: Solubility in water
# Type: physicochemical
Measurement kind: solubility (mg/mL)
Number in mg/mL, nothing else.

Q: Dear colleague, please send me the reported solubility for CCOC(=O)[C@@H](Cc1cn(C)c2ccccc12)NC(=O)[C@@H](N)CC(C)C.Cl when you can.
Ans: 19.8

---

The following compounds are listed with their measured Tmax values.
# Method summary: Tmax in female cynomolgus monkey at 375 mg/kg, po BID measured on day 8
# Type: ADME, organism-based, Macaca fascicularis
# Test context: in vivo
Number in h, nothing else.

Reference set (2 entries):
# Structure notation, Measurement kind, Result number
rows = [
    ("CCOC(=O)[C@@H](Cc1cn(C)c2ccccc12)NC(=O)[C@@H](N)CC(C)C.Cl", "Tmax", 2),
    ("CC(C)C[C@H](N)C(=O)N[C@H](Cc1cn(C)c2ccccc12)C(=O)O", "Tmax", 2),
]

Q: Dear colleague, please send me the reported Tmax for Cn1cc(C[C@@H](N)C(=O)O)c2ccccc21 when you can.
Ans: 2.5

---

# Method summary: Cmax in female cynomolgus monkey at 675 mg/kg, po measured on day 1
# Type: ADME, organism-based, Macaca fascicularis
# Set-up: route oral, dose 675 mg/kg
# Test context: in vivo
Measurement kind: Cmax (nM)
Number in nM, nothing else.

# Structure notation, Output unit, Result number
measured = [
    ("CCOC(=O)[C@@H](Cc1cn(C)c2ccccc12)NC(=O)[C@@H](N)CC(C)C.Cl", "nM", 75.9),
    ("CC(C)C[C@H](N)C(=O)N[C@H](Cc1cn(C)c2ccccc12)C(=O)O", "nM", 1580),
]

Consider the record given below.
Q: Dear colleague, please send me the reported Cmax for Cn1cc(C[C@@H](N)C(=O)O)c2ccccc21 when you can.
Ans: 387000
